Here the recorded MIC S. pneumo. 1095 is given for each entry.
Tested on: Streptococcus pneumoniae 1095
Type: cell-based
Test settings: S. pneumoniae 1095 (ermB); microtiter broth dilution
Recorded endpoint: MIC S. pneumo. 1095 (µg/mL)

* CCC1OC(=O)C(C)C(=O)C(C)C(OC2OC(C)CC(N(C)C)C2O)C(C)(OC)CC(C)C(=O)C(C)C2N(CC3CCCN3C(=O)c3ccc(C)[nH]c3=O)C(=O)OC12C (stereo not drawn) [10.48] | 4
* CC[C@H]1OC(=O)[C@H](C)C(=O)[C@H](C)[C@@H](O[C@@H]2O[C@H](C)C[C@H](N(C)C)[C@H]2O)[C@](C)(OC)C[C@@H](C)C(=O)[C@H](C)[C@H]2N(CC3(C)CN(C(=O)c4cccc5ncccc45)C3)C(=O)O[C@]12C.O=CO [6.14] | 8
* CCC1OC(=O)C(C)C(=O)C(C)C(OC2OC(C)CC(N(C)C)C2O)C(C)(OC)CC(C)C(=O)C(C)C2N(CC3C4CN(C(=O)c5cc(F)ccc5F)CC43)C(=O)OC12C (stereo not drawn) [16.03] | 1.56
* CC[C@H]1OC(=O)[C@H](C)C(=O)[C@H](C)[C@@H](O[C@@H]2O[C@H](C)C[C@H](N(C)C)[C@H]2O)[C@](C)(OC)C[C@@H](C)C(=O)[C@H](C)[C@H]2N(C[C@H]3CCCN3C(=O)c3cccc4ncsc34)C(=O)O[C@]12C.O=CO [10.22] | 0.12
* CC[C@H]1OC(=O)[C@H](C)C(=O)[C@H](C)[C@@H](O[C@@H]2O[C@H](C)C[C@H](N(C)C)[C@H]2O)[C@](C)(OC)C[C@@H](C)C(=O)[C@H](C)[C@H]2N(CC3(C)CN(C(=O)c4ccc5cccnc5c4)C3)C(=O)O[C@]12C.O=CO [6.16] | 0.12
* CC[C@H]1OC(=O)[C@H](C)C(=O)[C@H](C)[C@@H](O[C@@H]2O[C@H](C)C[C@H](N(C)C)[C@H]2O)[C@](C)(OC)C[C@@H](C)C(=O)[C@H](C)[C@H]2N(CC3(O)CN(Cc4ccn(-c5cccnc5)n4)C3)C(=O)O[C@]12C [7.13] | 1
* CC[C@H]1OC(=O)[C@H](C)C(=O)[C@H](C)[C@@H](O[C@@H]2O[C@H](C)C[C@H](N(C)C)[C@H]2O)[C@](C)(OC)C[C@@H](C)C(=O)[C@H](C)[C@H]2N(CC3(C)CN(C(=O)c4ccnc5ccccc45)C3)C(=O)O[C@]12C.O=CO [6.13] | 8
